biological target: MCR-1 (Homo sapiens, UniProt Q01726); construct: expressed in transfected cells; host or cells: HEK 293; assay: Melanocortin receptor binding assay, competition with 125I-HP 467, HEK 293 cells expressing hMCR-1; conditions: competition with 125I-HP 467, HEK 293 cells expressing MCR-1; read-out: MC-1 IC50
Sequence (Q01726 whole entry): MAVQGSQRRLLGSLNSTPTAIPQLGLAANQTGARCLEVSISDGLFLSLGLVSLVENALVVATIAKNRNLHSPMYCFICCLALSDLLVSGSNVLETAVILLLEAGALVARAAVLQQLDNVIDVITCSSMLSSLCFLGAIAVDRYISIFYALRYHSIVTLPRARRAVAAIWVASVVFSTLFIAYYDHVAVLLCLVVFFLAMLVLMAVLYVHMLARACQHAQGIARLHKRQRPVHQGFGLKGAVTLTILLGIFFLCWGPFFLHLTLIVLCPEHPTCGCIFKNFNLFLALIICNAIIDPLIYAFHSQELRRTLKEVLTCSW
pIC50: −log10 of the molar value.
outcome_measure: pIC50

The cases that follow already have their pIC50 on record.
{"columns": ["molecule", "pIC50"],
 "data": [
  ["NCC(N)CCCN1Cc2ccccc2C(CN)C1c1ccc(-c2ccccc2)cc1 (mixture of isomers)", 5.76],
  ["CNC(CN)CCCCN1Cc2ccccc2C(CNC2CCCCC2)C1c1ccc(NCCc2ccc(OC)cc2)cc1 (stereo not shown)", 5.58],
  ["CCCCNc1ccc(C2C(CN)c3ccccc3CN2CCCCC(CN)NCCN)cc1 (stereo not shown)", 6.70],
  ["NCC(CCCCN1Cc2ccccc2C(CN)C1c1ccc(-c2ccccc2)cc1)NCCc1ccccc1 (stereo not shown)", 6.46],
  ["CCNC(CN)CCCCN1Cc2ccccc2C(CNC2CCCCC2)C1c1ccc(-c2ccccc2)cc1 (stereo not shown)", 6.34],
  ["CNC(CN)CCCCN1Cc2ccccc2C(CNC2CCCCC2)C1c1ccc(NCc2ccc(Cl)cc2)cc1 (stereo not shown)", 5.40],
  ["CCCCNc1ccc(C2C(CNC3CCCCC3)c3ccccc3CN2CCCCC(CN)NCCCC)cc1 (stereo not shown)", 6.62],
  ["CCNC(CN)CCCN1Cc2ccccc2C(CNCCc2ccccc2)C1c1ccc(-c2ccccc2)cc1 (stereo not shown)", 6.09]
]}

a: NCC(CCCCN1Cc2ccccc2C(CNCCc2ccccc2)C1c1ccc(-c2ccccc2)cc1)N1CCCC1 (stereo not shown)
b: CCCCNc1ccc(C2C(CNC3CCCCC3)c3ccccc3CN2CCCCC(CN)NCC)cc1 (mixture of isomers)
c: NCC(CCCCN1Cc2ccccc2C(CN)C1c1ccc(-c2ccccc2)cc1)NCc1ccccc1 (mixture of isomers)
input: Rank order required: pIC50, descending. # the answer lists labels in the order requested
output: a, b, c

---

target: MCR-1 (Homo sapiens, UniProt Q01726); construct: expressed in transfected cells; host or cells: HEK 293; assay: Melanocortin receptor binding assay, competition with 125I-HP 467, HEK 293 cells expressing hMCR-1; settings: displacement of 125I-HP 467 at 10 μM isoquinoline compound; second of duplicate
outcome_measure: % Disp. MC-1 10 μM (%)

{"columns": ["molecule", "study_system", "units_label", "% Disp. MC-1 10 μM"],
 "data": [
  ["NCCN1Cc2ccccc2C(CNC2CCCCC2)C1c1cccc2ccccc12 (centres unmarked)", "MCR-1 (Homo sapiens, UniProt Q01726)", "%", 53.6],
  ["CNC(CN)CN1Cc2ccccc2C(CNC2CCCCC2)C1c1cc(Cl)cc(Cl)c1Cl (centres unmarked)", "MCR-1 (Homo sapiens, UniProt Q01726)", "%", 61.1],
  ["NCCN1Cc2ccccc2C(CNC2CCCCC2)C1c1ccc(F)c(Br)c1 (centres unmarked)", "MCR-1 (Homo sapiens, UniProt Q01726)", "%", 53.6],
  ["CNC(CN)CN1Cc2ccccc2C(CNC2CCCCC2)C1c1ccnc2ccccc12 (centres unmarked)", "MCR-1 (Homo sapiens, UniProt Q01726)", "%", 34.6],
  ["CNC(CN)CN1Cc2ccccc2C(CNC2CCCCC2)C1c1ccc(OC)c2ccccc12 (centres unmarked)", "MCR-1 (Homo sapiens, UniProt Q01726)", "%", 45.8]
]}
